# assayed-target: recombinant human cIAP2-BIR3 protein (Homo sapiens)
# Construct: recombinant human cIAP2-BIR3 protein; purchased Reaction biology APT-11-372
# Sequence (Q13489 238-349 limits assumed): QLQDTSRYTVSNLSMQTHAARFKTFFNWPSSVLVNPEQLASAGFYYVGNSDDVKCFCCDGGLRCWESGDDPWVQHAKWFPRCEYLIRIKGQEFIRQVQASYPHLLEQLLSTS
# run-description: Recombinant human c-IAP2-BIR3 biochemical assay (HTRF, peptide displacement)
# test-conditions: 3.7 nM cIAP2-BIR3, 3.7 nM AbuRPF-K(5-Fam)-NH2 peptide, read-out: Protein binding IC50 (nM) c-IAP2
outcome-measure: IC50 (nM)

The examples below pair each entry with its known result.
1. C[C@@H]1CN(CC(=O)N2c3cc(Cc4ccc(F)cc4)c(CO)nc3OC[C@@H]2C)[C@@H](CN2CCOC[C@H]2C(F)(F)F)CN1 [Compound 91A]    1.25
2. C[C@@H]1CN(CC(=O)N2c3cc(Cc4ccc(F)cc4)c(C(=O)Nc4ccc(F)cc4)nc3OC[C@@H]2C)[C@@H](CN2[C@H](C)COC[C@H]2C)CN1 [Example 71]    0.57
3. C[C@@H]1CN(CC(=O)N2c3cc(Cc4ccc(F)cc4)cnc3OC[C@@H]2C)[C@@H](CN2[C@H](C)COC[C@H]2C)CN1 [Compound 22]    0.21

[A] C[C@@H]1CN(CC(=O)N2c3cc(Cc4ccc(F)cc4)c(N)nc3OC[C@@H]2C)[C@@H](CN2[C@H](C)COC[C@H]2C)CN1 [Compound 115]
[B] COC[C@@H]1COCCN1C[C@H]1CN[C@H](C)CN1CC(=O)N1c2cc(Cc3ccc(F)cc3)c(CO)nc2OC[C@@H]1C [Compound 52]
Dear colleague, could you let me know whether A or B has the lower recorded IC50? Thanks. # answer = label of selected item
A
